system: OVCAR-8; experiment: NCI tumour cell line growth inhibition, 48 h
The source made the active and inactive calls. Cut-off read from the data, not from the text of the source: active = GI50 up to about 1.1 µM and inactive = higher. Square brackets hold non-standard residues; d marks the D form. Peptide text beside a SMILES is read from it. Ac5c = NC1(C(=O)O)CCCC1
GI50 values by entry
readout.type: GI50

compound=Cc1ccc(/C(Cl)=C/C=C(C#N)C#N)cc1 readout_type=GI50 result_value="3.16 µM (inactive)"
compound=S=c1[nH]nc(Cn2c3ccc(Br)cc3c3nc4ccccc4nc32)n1C1CCCCC1 readout_type=GI50 result_value="22.6 µM (inactive)"
compound="NCC(=O)NC1(C(=O)O)CCCC1 (H-Gly-[Ac5c]-OH)" readout_type=GI50 result_value="> 100 µM (inactive)"
compound=O=C(OCCN=C1c2ccccc2CCc2ccccc21)c1ccccc1 readout_type=GI50 result_value="> 100 µM (inactive)"
compound=C[N+](C)(C)CC(=O)N/N=C(/Cc1nc2c3c(ccc2nc1O)C(=O)c1ccccc1C3=O)C(=O)Nc1ccc(Cl)c(Cl)c1 readout_type=GI50 result_value="50.5 µM (inactive)"
compound=c1ccc(CNc2ccc3[nH]c4cnccc4c3c2)cc1 readout_type=GI50 result_value="17.5 µM (inactive)"
compound=C=CCSc1nc2ccccc2c(=O)n1Cc1ccco1 readout_type=GI50 result_value="> 100 µM (inactive)"
compound="COc1cc(/C=C2/SC(c3ccccc3)N(c3ccc(NC(C)=O)cc3)C2=O)cc(OC)c1OC (stereo not given)" readout_type=GI50 result_value="> 100 µM (inactive)"
compound=O=C(Nc1cccc(O)c1)C(=O)C1C(=O)NC(=S)NC1=O readout_type=GI50 result_value="> 100 µM (inactive)"
compound="COC(=O)C(CC(=O)c1cc2c(cc1I)OCO2)Cc1cc(OC)c(OC)c(OC)c1I (stereo not given)" readout_type=GI50 result_value="> 100 µM (inactive)"
